All figures here come from patent US20250051316A1.

// reported AUC(0-t) for each item listed
Experiment: Pharmacokinetic assay of Balb/c mice, plasma and brain, oral
Type: in vivo
Settings: male, mouse, Brain, p.o. 5 mg/kg

{"columns": ["COMPOUND", "UNIT_OF_MEASURE", "AUC(0-t)"],
 "data": [
  ["[2H]c1ccc(C2CNCCO2)cc1 (single isomer, unassigned)", "ng·h/mL", 3980],
  ["[2H]c1ccc([C@H]2CNCCO2)nc1 (single isomer, unassigned)", "ng·h/mL", 6480],
  ["[2H]C1([2H])CO[C@@H](c2ccc(F)cn2)CN1 (single isomer, unassigned) [Example 17-2, 2-(5-fluoropyridin-2-yl)morpholin-5,5-d2]", "ng·h/mL", 7500],
  ["[2H]C1([2H])CO[C@H](c2ccc(F)cc2)CN1 (single isomer, unassigned) [Example 33-1, 2-(4-Fluorophenyl)morpholin-5,5-d2]", "ng·h/mL", 15300],
  ["[2H]C1([2H])COC(c2cccc(C)n2)CN1 (single isomer, unassigned) [Example 10-2, 2-(6-Methylpyridin-2-yl)morpholin-5,5-d2]", "ng·h/mL", 12500]
]}

----------
Biological target: TAAR1 receptor (Homo sapiens, UniProt Q96RJ0)
Sequence (Q96RJ0 1-339): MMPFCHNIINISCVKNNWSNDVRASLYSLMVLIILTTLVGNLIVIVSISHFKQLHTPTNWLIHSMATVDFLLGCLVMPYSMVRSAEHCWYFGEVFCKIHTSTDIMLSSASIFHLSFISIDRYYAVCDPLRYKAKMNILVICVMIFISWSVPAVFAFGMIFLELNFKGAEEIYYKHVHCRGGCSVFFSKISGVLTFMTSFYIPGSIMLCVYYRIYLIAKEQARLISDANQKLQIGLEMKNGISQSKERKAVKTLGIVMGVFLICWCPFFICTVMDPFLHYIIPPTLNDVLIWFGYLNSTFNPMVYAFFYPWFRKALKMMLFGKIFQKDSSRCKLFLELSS
Assay: Effect on cAMP content in cells which stably express TAAR1 receptor
We label by threshold. Values of EC50 strictly beneath 5 nM are Criterion met. Values of 5 nM and up are Criterion not met.

{"columns": ["MOLECULE", "QUALITATIVE_LABEL"],
 "data": [
  ["[2H]c1ccc(C2CNCCO2)cc1 (single isomer, unassigned)", "Criterion met"],
  ["[2H]c1ccnc([C@@H]2CNCCO2)c1 (single isomer, unassigned)", "Criterion not met"],
  ["[2H]c1ccc([C@H]2CNCCO2)nc1 (single isomer, unassigned)", "Criterion met"],
  ["Clc1cccc(C2CNCCO2)c1 (single isomer, unassigned)", "Criterion not met"],
  ["[2H]C1([2H])CO[C@H](c2ccc(F)cc2)CN1 (single isomer, unassigned) [Example 33-1, 2-(4-Fluorophenyl)morpholin-5,5-d2]", "Criterion not met"],
  ["[2H]C1([2H])COC(c2cccc(C)n2)CN1 (single isomer, unassigned) [Example 10-2, 2-(6-Methylpyridin-2-yl)morpholin-5,5-d2]", "Criterion not met"]
]}

----------
Test: Pharmacokinetic assay of Balb/c mice, plasma and brain, oral
Assay type: in vivo
Details: male, mouse, Brain, p.o. 5 mg/kg
MEASURED_QUANTITY: Tmax (min)

{"columns": ["MOLECULE", "MEASURED_RESULT"],
 "data": [
  ["[2H]C1([2H])COC(c2cccc(C)n2)CN1 (single isomer, unassigned) [Example 10-2, 2-(6-Methylpyridin-2-yl)morpholin-5,5-d2]", 30],
  ["[2H]c1ccc(C2CNCCO2)cc1 (single isomer, unassigned) [Example 28-2, 2-(phenyl-4-d)morpholine]", 15],
  ["[2H]c1ccc([C@H]2CNCCO2)nc1 (single isomer, unassigned) [Example 6-2, 2-(pyridin-2-yl-5-d)morpholine]", 15],
  ["[2H]C1([2H])CO[C@H](c2ccc(F)cc2)CN1 (single isomer, unassigned) [Example 33-1, 2-(4-Fluorophenyl)morpholin-5,5-d2]", 15],
  ["[2H]C1([2H])CO[C@@H](c2ccc(F)cn2)CN1 (single isomer, unassigned) [Example 17-2, 2-(5-fluoropyridin-2-yl)morpholin-5,5-d2]", 30]
]}

----------
Assay: Pharmacokinetic assay of Balb/c mice, plasma and brain, oral
Type: in vivo
Details: male, mouse, Plasma, p.o. 5 mg/kg
// reported Tmax for each item listed

{"columns": ["MOLECULE", "Tmax"],
 "data": [
  ["[2H]c1ccc(C2CNCCO2)cc1 (single isomer, unassigned)", "15 min"],
  ["[2H]C1([2H])CO[C@@H](c2ccc(F)cn2)CN1 (single isomer, unassigned) [Example 17-2, 2-(5-fluoropyridin-2-yl)morpholin-5,5-d2]", "15 min"],
  ["[2H]c1ccc([C@H]2CNCCO2)nc1 (single isomer, unassigned)", "15 min"],
  ["[2H]c1ccnc([C@@H]2CNCCO2)c1 (single isomer, unassigned)", "30 min"],
  ["Cc1nc([C@@H]2CNCCO2)ccc1F (single isomer, unassigned)", "120 min"]
]}
